As a worked illustration, we turn to pIC50 data collected for Tyrosinase (Agaricus bisporus, UniProt O42713).
pIC50: −log10 of the molar value.
property-label: pIC50

CC1(C)OC[C@]2(C[C@]34C[C@@H]2CC[C@H]3[C@]2(C)CCCC(C)(C)[C@H]2C(=O)[C@H]4O)O1 [BROUSSONETONE C]	3.49
CC1(C)CCC[C@]2(C)[C@@H]1C(=O)[C@@H](O)[C@@]13C[C@H](CC[C@@H]21)[C@@](O)(CO)C3 [BROUSSONETONE A]	3.49
O=c1cc(-c2ccc(O)cc2)oc2cc(O)cc(O)c12 [APIGENIN]	3.52
CC1(C)CCC[C@]2(C)[C@@H]1C(=O)[C@H](O)[C@@]13C[C@H](CC[C@@H]21)[C@@](O)(CO)C3 [BROUSSONETONE B]	3.50

* * *

# tgt: Tyrosinase (Agaricus bisporus, UniProt O42713)
# Sequence (O42713 whole entry): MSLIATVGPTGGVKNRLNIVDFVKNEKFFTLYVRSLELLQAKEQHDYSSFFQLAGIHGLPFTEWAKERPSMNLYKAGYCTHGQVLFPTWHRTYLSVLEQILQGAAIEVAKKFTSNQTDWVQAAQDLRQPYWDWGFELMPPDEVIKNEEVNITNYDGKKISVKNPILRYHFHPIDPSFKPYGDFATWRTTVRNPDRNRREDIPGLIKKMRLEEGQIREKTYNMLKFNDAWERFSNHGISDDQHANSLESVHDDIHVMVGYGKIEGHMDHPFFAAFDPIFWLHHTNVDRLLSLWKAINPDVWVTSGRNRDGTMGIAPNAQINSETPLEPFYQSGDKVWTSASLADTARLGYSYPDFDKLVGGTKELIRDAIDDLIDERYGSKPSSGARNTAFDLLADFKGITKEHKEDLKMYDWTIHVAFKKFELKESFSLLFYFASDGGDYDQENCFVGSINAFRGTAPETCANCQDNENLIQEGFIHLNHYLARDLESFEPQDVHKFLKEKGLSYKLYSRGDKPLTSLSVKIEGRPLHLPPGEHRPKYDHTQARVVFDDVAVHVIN
pIC50: −log10 of the molar value.
property-label: pIC50

CC1(C)OC[C@]2(C[C@]34C[C@@H]2CC[C@H]3[C@]2(C)CCCC(C)(C)[C@H]2C(=O)[C@H]4O)O1	3.45
O=c1cc(-c2ccc(O)cc2)oc2cc(O)cc(O)c12	3.52
CC1(C)CCC[C@]2(C)[C@@H]1C(=O)[C@@H](O)[C@@]13C[C@H](CC[C@@H]21)[C@@](O)(CO)C3	3.47
